Please provide measured log10(EC50) for the entries that follow.
System: cell growth when given with DFMO
Test: EC50 determined as disclosed in Weeks et al. (cell growth when given with DFMO)
Type: cell-based
Details: determined as in Weeks et al. Exp Cell Res. 2000
log10 EC50, nM

> print(dat)
                                   molecule  readout.kind  recorded.value
1  CC(C)(C)CCNCCCC[C@H](N)C(=O)NCCCNCCCCNCCCN [MQT 4]   log10(EC50)            3.20
2  CCCCCCCNCCCC[C@H](N)C(=O)NCCCNCCCCNCCCN [MQT 6]   log10(EC50)            2.58

Value sought for every listed molecule: log10(EC50).
1. CCCCCCCC(=O)NCCCC[C@H](N)C(=O)NCCCNCCCCNCCCN [MQT 5]
2. NCCCNCCCCNCCCNC(=O)[C@@H](N)CCCCNCC1CCCCC1 [MQT 3]

OUTPUT:
1. 3.34
2. 2.89

For CCCCCCCCCCCCCCCC(=O)NCCCC[C@H](N)C(=O)NCCCNCCCCNCCCN [MQT 2] the molecule record lists log10(EC50) as 1.64
